All values here come from patent US20050197338A1.

IC50 by entry:
Molecular target: human IKK-2 (rhIKK-2 homodimer) (Homo sapiens, UniProt O14920)
Construct: FLAG (DYKDDDDKD) (C); made in house; host or cells: insect cells (baculovirus, pFastBac)
Test: IKK-2 Resin Enzyme Assay (Human IKK-2 Enzyme Assay)
Assay type: biochemical
Conditions: human IKK-2, resin enzyme assay; read-out: IC50 (μM) hIKK-2
property_name: IC50 (µM)

compound	property_name	bound_operator	value
NC(=O)Nc1nn(-c2ccc(-c3ccc(Cl)c(Cl)c3)cc2)cc1C(N)=O	IC50	>	20
CCOc1cc(-n2cc(NC(N)=O)c(C(N)=O)n2)ccc1-c1cccc(O)c1	IC50	=	2.02
N#Cc1cccc(-c2ccc(-n3cc(NC(N)=O)c(C(N)=O)n3)cc2)c1	IC50	=	0.677
NC(=O)Nc1cn(-c2ccc(-c3ccccc3CO)cc2)nc1C(N)=O	IC50	=	0.351
NC(=O)Nc1cn(-c2ccc([S+]([O-])c3ccc(F)cc3)cc2)nc1C(N)=O (stereo not shown)	IC50	=	0.326
NCc1cccc(-c2ccc(-n3cc(NC(N)=O)c(C(N)=O)n3)cc2)c1	IC50	=	2.79
NC(=O)Nc1cn(-c2cccc(-c3ccnc(Cl)c3)c2)nc1C(N)=O	IC50	=	0.38
NC(=O)Nc1cn(-c2cccc(-c3ccc(C4CCCCC4)cc3)c2)nc1C(N)=O	IC50	>	20
CC(C)(C)NC(=O)c1cccc(-c2ccc(-n3cc(NC(N)=O)c(C(N)=O)n3)cc2)c1	IC50	=	4.79
CN(C)CCN(C)C(=O)c1ccc(-c2ccc(-n3cc(NC(N)=O)c(C(N)=O)n3)cc2)cc1F	IC50	=	4.79
CN(C)c1ccc(-c2cccc(-n3cc(NC(N)=O)c(C(N)=O)n3)c2)cc1	IC50	=	6.21
NC(=O)Nc1cn(-c2ccc(-c3ccc(F)cc3O)c(F)c2)nc1C(N)=O	IC50	=	0.842
NC(=O)Nc1cn(-c2ccc(-c3cccc(O)c3)c(F)c2)nc1C(N)=O	IC50	=	1.06

====

Each entry below lists one item and its recorded log10 of IC50 value.
Biological target: human IKK-2 (rhIKK-2 homodimer) (Homo sapiens, UniProt O14920)
Construct: FLAG (DYKDDDDKD) (C); made in house; host or cells: insect cells (baculovirus, pFastBac)
Sequence (O14920 1-756): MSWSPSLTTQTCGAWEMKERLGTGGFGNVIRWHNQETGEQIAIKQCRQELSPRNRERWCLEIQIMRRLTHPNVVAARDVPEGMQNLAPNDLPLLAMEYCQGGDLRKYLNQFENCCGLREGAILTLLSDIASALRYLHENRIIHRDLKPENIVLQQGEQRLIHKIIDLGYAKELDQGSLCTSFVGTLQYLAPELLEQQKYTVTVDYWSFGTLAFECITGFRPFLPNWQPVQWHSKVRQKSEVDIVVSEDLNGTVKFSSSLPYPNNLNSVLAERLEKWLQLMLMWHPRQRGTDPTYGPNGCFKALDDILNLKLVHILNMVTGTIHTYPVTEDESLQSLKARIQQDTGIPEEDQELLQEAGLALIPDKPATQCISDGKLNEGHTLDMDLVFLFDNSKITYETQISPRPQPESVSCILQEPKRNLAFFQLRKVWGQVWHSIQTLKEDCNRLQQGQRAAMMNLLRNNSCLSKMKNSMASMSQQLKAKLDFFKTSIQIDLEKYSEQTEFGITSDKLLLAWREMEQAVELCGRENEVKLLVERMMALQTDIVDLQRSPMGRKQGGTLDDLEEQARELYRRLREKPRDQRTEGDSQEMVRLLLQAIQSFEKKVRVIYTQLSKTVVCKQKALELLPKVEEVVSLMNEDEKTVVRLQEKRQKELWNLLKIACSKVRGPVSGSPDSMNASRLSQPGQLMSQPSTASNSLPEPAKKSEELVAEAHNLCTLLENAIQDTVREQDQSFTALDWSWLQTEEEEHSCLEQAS
Assay: IKK-2 Resin Enzyme Assay (Human IKK-2 Enzyme Assay)
Format: biochemical
Settings: human IKK-2, resin enzyme assay; read-out: IC50 (μM) hIKK-2
property_name: log10 of IC50 (log10 of the value in µM)

compound	log10 of IC50
NC(=O)Nc1cn(-c2ccc([S+]([O-])c3ccccc3O)cc2)nc1C(N)=O (stereo not drawn)	-0.24
N#CCOc1cccc(-c2ccc(-n3cc(NC(N)=O)c(C(N)=O)n3)cc2Cl)c1	0.20
COc1ccccc1-c1cccc(-n2cc(NC(N)=O)c(C(N)=O)n2)c1	0.51
N#CCOc1cccc(-c2ccc(-n3cc(NC(N)=O)c(C(N)=O)n3)cc2)c1	-0.42
N#CCc1ccc(-c2cccc(-n3cc(NC(N)=O)c(C(N)=O)n3)c2)cc1	0.32
NC(=O)COc1cccc(-c2ccc(-n3cc(NC(N)=O)c(C(N)=O)n3)cc2)c1	-0.74
NC(=O)Nc1cn(-c2ccc(-c3cc(F)ccc3OCc3ncco3)cc2)nc1C(N)=O	-0.12
CCCNC(=O)c1ccc(-c2ccc(-n3cc(NC(N)=O)c(C(N)=O)n3)cc2)cc1	0.80

====

Biological target: human IKK-2 (rhIKK-2 homodimer) (Homo sapiens)
Construct: FLAG (DYKDDDDKD) (C); made in house; host or cells: insect cells (baculovirus, pFastBac)
Test: IKK-2 Resin Enzyme Assay (Human IKK-2 Enzyme Assay)
Format: biochemical
Details: human IKK-2, resin enzyme assay; read-out: IC50 (μM) hIKK-2
Quick reference: log10 IC50 of the listed items.
property_name: log10 IC50 (log10 of the value in µM)

compound	value
NC(=O)Nc1cn(-c2ccc3c(c2)OCO3)nc1C(N)=O [Example 213]	0.59
NC(=O)Nc1cn(-c2ccc(-c3cc(F)ccc3OCC(=O)O)cc2)nc1C(N)=O [Example 259]	0.60
NC(=O)Nc1cn(-c2ccc(-c3ccc(C(=O)OCc4ccccc4F)c(F)c3)cc2)nc1C(N)=O [Example 162]	1.14
NC(=O)Nc1cn(-c2cccc(-c3ccc4c(c3)OCO4)c2)nc1C(N)=O [Example 62]	0.90
CC(=O)COc1cccc(-c2ccc(-n3cc(NC(N)=O)c(C(N)=O)n3)cc2)c1 [Example 253]	0.00
Cc1cc(I)ccc1-n1cc(NC(N)=O)c(C(N)=O)n1 [Example 4]	0.46

====

Molecular target: human IKK-2 (rhIKK-2 homodimer) (Homo sapiens)
Construct: FLAG (DYKDDDDKD) (C); made in house; host or cells: insect cells (baculovirus, pFastBac)
Assay: IKK-2 Resin Enzyme Assay (Human IKK-2 Enzyme Assay)
Type: biochemical
Conditions: human IKK-2, resin enzyme assay; read-out: IC50 (μM) hIKK-2
// log10 of IC50 lookup, one value per entry
property_name: log10 of IC50 (log10 of the value in µM)

molecule	value
NC(=O)Nc1cn(-c2cccc(-c3cccc(C(=O)O)c3)c2)nc1C(N)=O	0.90
NC(=O)Nc1cn(-c2ccc(I)cc2Cl)nc1C(N)=O	-0.18
NC(=O)Nc1cn(-c2ccc(SC3CCCC3)cc2)nc1C(N)=O	0.12
NC(=O)Nc1cn(-c2ccc(-c3cccc(OCC(=O)O)c3)cc2)nc1C(N)=O	0.01
NC(=O)CCc1cccc(-c2ccc(-n3cc(NC(N)=O)c(C(N)=O)n3)cc2)c1	-0.21
CC(=O)Nc1cccc(-c2cccc(-n3cc(NC(N)=O)c(C(N)=O)n3)c2)c1	-0.05
NC(=O)Nc1cn(-c2cccc(-c3cccc(CO)c3)c2)nc1C(N)=O	0.39
NC(=O)Nc1cn(-c2ccc(-c3ccc(C(N)=O)cc3)cc2)nc1C(N)=O	-1.30
Cc1cnccc1-c1cccc(-n2cc(NC(N)=O)c(C(N)=O)n2)c1	-0.19
CC(=O)Nc1ccc(-c2cccc(-n3cc(NC(N)=O)c(C(N)=O)n3)c2)cc1	0.02
NC(=O)Nc1cn(-c2cccc(-c3cccc4ncccc34)c2)nc1C(N)=O	0.57
N#CCOc1ccc(F)cc1-c1cccc(-n2cc(NC(N)=O)c(C(N)=O)n2)c1	-0.66
N#CCOc1ccccc1-c1ccc(-n2cc(NC(N)=O)c(C(N)=O)n2)cc1Cl	-0.49
NC(=O)Nc1cn(-c2ccc(-c3ccc(C(N)=O)c(F)c3)cc2)nc1C(N)=O	-0.89
NC(=O)Nc1cn(-c2cccc([S+]([O-])c3ccccc3F)c2)nc1C(N)=O (centres unmarked)	0.78
NC(=O)Nc1cn(-c2cccc(-c3ccc(Cl)cc3Cl)c2)nc1C(N)=O	1.22
NC(=O)Nc1cn(-c2ccc(-c3cccc(O)c3)c(C(F)(F)F)c2)nc1C(N)=O	-0.43
N#CCOc1cccc(-c2ccc(-n3cc(NC(N)=O)c(C(N)=O)n3)cc2C(F)(F)F)c1	0.59
NC(=O)Nc1nn(-c2ccc(-c3cc(Cl)ccc3Cl)cc2)cc1C(N)=O	0.22
NC(=O)Nc1cn(-c2ccc3ccccc3c2)nc1C(N)=O	-0.76
CC(=O)c1ccc(-c2cccc(-n3cc(NC(N)=O)c(C(N)=O)n3)c2)cc1	0.61
NC(=O)Nc1cn(-c2ccc([S+]([O-])C3CCCC3)cc2)nc1C(N)=O (centres unmarked)	-0.37
NC(=O)Nc1cn(-c2ccc(Cl)c(Cl)c2)nc1C(N)=O	-0.34
